settings: cynomolgus monkey, in vivo, sc, 35 mg/kg
MEASURED_METRIC: A/G ratio
API note: the answer field is a bare number with no unit suffix.

### Prompt Indicate its recorded A/G ratio; the substance in question is 958499 (ATTAGAGTATGTGGCA; 3-10-3 cEt gapmer, further chemistry not given here) [compound 958499]
### Response 1.3

### Prompt Indicate its recorded A/G ratio; the substance in question is 1198440 (AAGTGTATGTCAGAAG; cEt, 2'-MOE, 5-methylcytosine, phosphorothioate modifications, further chemistry not given here) [compound 1198440]
### Response 1.4

### Prompt Indicate its recorded A/G ratio; the substance in question is 1198872 (TGTATGTCAGAAGAGT; chemically modified gapmer, further chemistry not given here) [compound 1198872]
### Response 1.3

### Prompt Indicate its recorded A/G ratio; the substance in question is 1076453 (GTAATATTGCAATCTG; 3-10-3 cEt gapmer, further chemistry not given here) [compound 1076453]
### Response 1.3

### Prompt Indicate its recorded A/G ratio; the substance in question is 1198831 (CACTTTTACATTAGGA; chemically modified gapmer, further chemistry not given here) [compound 1198831]
### Response 1.4

### Prompt Indicate its recorded A/G ratio; the substance in question is 1198605 (GTAATATTGCAATCTG; modified gapmer, further chemistry not given here) [compound 1198605]
### Response 1.5
